- ASSAYED SYSTEM: Protein arginine N-methyltransferase 6 (Homo sapiens, UniProt Q96LA8)
- Sequence (Q96LA8 whole entry, looked up): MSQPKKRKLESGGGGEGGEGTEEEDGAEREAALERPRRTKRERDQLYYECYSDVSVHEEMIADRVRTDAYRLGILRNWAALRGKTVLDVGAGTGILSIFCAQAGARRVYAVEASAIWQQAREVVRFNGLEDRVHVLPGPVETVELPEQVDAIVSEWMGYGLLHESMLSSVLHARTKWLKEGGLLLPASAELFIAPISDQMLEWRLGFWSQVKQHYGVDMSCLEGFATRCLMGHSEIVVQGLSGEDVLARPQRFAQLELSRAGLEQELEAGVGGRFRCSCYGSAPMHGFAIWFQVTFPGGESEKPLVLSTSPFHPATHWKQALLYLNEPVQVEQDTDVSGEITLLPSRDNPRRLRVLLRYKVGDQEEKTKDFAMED
- TEST DETAILS: Inhibition of human PRMT6 using GST-GAR as substrate and SAM as cofactor at 10 uM by radiometric HotSpot assay relative to control
OBSERVED PROPERTY: inhibition

Sample records with inhibition:
N=C(NCCCSC[C@H]1O[C@@H](n2cnc3c(N)ncnc32)[C@H](O)[C@@H]1O)Nc1cccc(-c2ccc(F)c(O)c2)c1 = > 90%
Nc1ncnc2c1ncn2[C@@H]1O[C@H](CSCCNCc2cccc(-c3ccoc3)c2)[C@@H](O)[C@H]1O = 50%
COc1cc2nc(-c3ccc(O)cc3)nc(NCCSC[C@H]3O[C@@H](n4cnc5c(N)ncnc54)[C@H](O)[C@@H]3O)c2cc1OC = > 70%
Nc1ncnc2c1ncn2[C@@H]1O[C@H](CSCCNCc2cccc(-c3ccncc3)c2)[C@@H](O)[C@H]1O = 50%
Nc1ncnc2c1ncn2[C@@H]1O[C@H](CSCCNCc2cccc(-c3cccc(O)c3)c2)[C@@H](O)[C@H]1O = 50%

GET /value?item= "N=C(NCCSC[C@H]1O[C@@H](n2cnc3c(N)ncnc32)[C@H](O)[C@@H]1O)Nc1cccc(I)c1" &field=inhibition returns > 90%

GET /value?item= "Nc1ncnc2c1ncn2[C@@H]1O[C@H](CSCCOc2ccc(-c3cncnc3)cc2)[C@@H](O)[C@H]1O" &field=inhibition returns < 50%

###

- ASSAYED SYSTEM: Protein arginine N-methyltransferase 8 (Homo sapiens, UniProt Q9NR22)
- Sequence (Q9NR22 2-394 limits assumed): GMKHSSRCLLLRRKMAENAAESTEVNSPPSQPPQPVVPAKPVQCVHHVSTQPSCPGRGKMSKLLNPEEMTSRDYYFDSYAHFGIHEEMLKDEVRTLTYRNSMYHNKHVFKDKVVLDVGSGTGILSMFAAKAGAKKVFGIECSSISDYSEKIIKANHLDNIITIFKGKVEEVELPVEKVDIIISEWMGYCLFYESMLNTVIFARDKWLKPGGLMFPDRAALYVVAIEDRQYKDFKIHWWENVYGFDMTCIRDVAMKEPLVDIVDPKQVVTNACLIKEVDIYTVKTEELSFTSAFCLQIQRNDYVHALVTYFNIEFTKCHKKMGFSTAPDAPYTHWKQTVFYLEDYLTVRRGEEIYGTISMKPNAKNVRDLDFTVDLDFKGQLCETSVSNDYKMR
- TEST DETAILS: Inhibition of human PRMT8 using Histone H4 as substrate and SAM as cofactor at 10 uM by radiometric HotSpot assay relative to control
OBSERVED PROPERTY: inhibition

Sample records with inhibition:
Nc1ncnc2c1ncn2[C@@H]1O[C@H](CSCCNC(=O)Nc2cccc3ccccc23)[C@@H](O)[C@H]1O = < 30%
N=C(NCCSC[C@H]1O[C@@H](n2cnc3c(N)ncnc32)[C@H](O)[C@@H]1O)NCc1ccccc1 = > 95%
Nc1ncnc2c1ncn2[C@@H]1O[C@H](CSCCOc2ccc(-c3ccc(O)cc3)cc2)[C@@H](O)[C@H]1O = < 50%

Turning now to a further compound:
GET /value?item= "Nc1ncnc2c1ncn2[C@@H]1O[C@H](CSCCCNCc2cccc(-c3cncnc3)c2)[C@@H](O)[C@H]1O" &field=inhibition returns > 50%

###

- ASSAYED SYSTEM: Protein arginine N-methyltransferase 1 (Homo sapiens, UniProt Q99873)
- TEST DETAILS: Inhibition of human PRMT1 using Histone H4 as substrate and SAM as cofactor by radiometric HotSpot assay
- Sequence (Q99873 whole entry): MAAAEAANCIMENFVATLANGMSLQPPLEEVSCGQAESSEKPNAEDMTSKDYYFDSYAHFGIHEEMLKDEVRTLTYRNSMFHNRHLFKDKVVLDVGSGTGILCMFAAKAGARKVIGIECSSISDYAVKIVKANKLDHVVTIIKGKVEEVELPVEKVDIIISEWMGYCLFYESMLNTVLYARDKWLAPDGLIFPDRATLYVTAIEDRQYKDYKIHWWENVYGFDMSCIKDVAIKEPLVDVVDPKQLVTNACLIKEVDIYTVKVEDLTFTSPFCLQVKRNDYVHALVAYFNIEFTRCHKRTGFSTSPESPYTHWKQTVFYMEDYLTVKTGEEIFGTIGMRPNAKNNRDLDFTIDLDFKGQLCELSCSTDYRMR
OBSERVED PROPERTY: IC50 (µM)
# output: bare number, implied unit µM

GET /value?item= "N=C(N)NCCC[C@H](N)C(=O)NCC(=O)N[C@@H](CCCN)C(=O)N[C@@H](CCCNC(=N)NCCCSC[C@H]1O[C@@H](n2cnc3c(N)ncnc32)[C@H](O)[C@@H]1O)C(=O)O" &field=IC50 returns 5.9

###

- ASSAYED SYSTEM: Protein arginine N-methyltransferase 1 (Homo sapiens)
- TEST DETAILS: Inhibition of human PRMT1 using H4-21peptide as substrate at 10 uM incubated for 10 mins by fluorescence based analysis relative to control
- Sequence (Q99873 whole entry, looked up): as the sequence (Q99873 whole entry) above
OBSERVED PROPERTY: inhibition

Sample records with inhibition:
N=C(NCCCSC[C@H]1O[C@@H](n2cnc3c(N)ncnc32)[C@H](O)[C@@H]1O)Nc1cccc(-c2ccc(Cl)cc2)c1 = > 50%
N=C(NCCSC[C@H]1O[C@@H](n2cnc3c(N)ncnc32)[C@H](O)[C@@H]1O)Nc1cccc(-c2cccc(F)c2)c1 = > 50%
Nc1ncnc2c1ncn2[C@@H]1O[C@H](CSCCNC(=O)NCc2ccc3cnccc3c2)[C@@H](O)[C@H]1O = < 50%
Nc1ncnc2c1ncn2[C@@H]1O[C@H](CSCCNC(=O)Nc2ccccc2Br)[C@@H](O)[C@H]1O = < 50%

GET /value?item= "Nc1ncnc2c1ncn2[C@@H]1O[C@H](CSCCNC(=O)NCc2ccc(-c3cc[nH]n3)cc2)[C@@H](O)[C@H]1O" &field=inhibition returns < 50%
